- Target of assay: T1, His-tagged human B7-H3 (human, UniProt Q5ZPR3-2 29-245, limits assumed)
- T1 construct: Bought His-tagged protein coated on the ELISA plate; also called hu B7-H3; CD276
- T1 sequence (looked up): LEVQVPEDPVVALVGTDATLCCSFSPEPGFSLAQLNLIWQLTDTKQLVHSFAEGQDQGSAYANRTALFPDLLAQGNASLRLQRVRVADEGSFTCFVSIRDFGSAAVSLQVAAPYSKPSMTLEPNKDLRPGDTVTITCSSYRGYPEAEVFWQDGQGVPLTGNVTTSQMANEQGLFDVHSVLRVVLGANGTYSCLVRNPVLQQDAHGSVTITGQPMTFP
- Experiment description: ELISA, coated His-tagged antigen, scFv-Fc 1 ug/ml

Binder	ELISA OD450 @ 1 ug/ml / OD450
40633p1.2.E1 (scFv, V domains shown, Tested as scFv-Fc (Expi293 supernatant)) VH: EVQLLESGRGLVQPGGSLRLSCAASGFTVSYYGMSWVRQAPGKGLEWVSVIKQDGSEEYYADSVKGRFTISRDNSKNTLYLQMNSLRAEDTAVYYCARHWNDYSNGMNVWGQGTTVTVSS VL: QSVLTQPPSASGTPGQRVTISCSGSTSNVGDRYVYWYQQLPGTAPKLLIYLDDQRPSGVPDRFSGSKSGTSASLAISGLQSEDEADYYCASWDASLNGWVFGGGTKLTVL	1.9
40511p1.2.G10 (scFv, V domains shown, Tested as scFv-Fc (Expi293 supernatant)) VH: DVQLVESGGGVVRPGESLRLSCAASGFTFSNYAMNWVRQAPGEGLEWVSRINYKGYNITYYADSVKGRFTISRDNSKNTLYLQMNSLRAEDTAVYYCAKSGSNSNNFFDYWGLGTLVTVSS VL: EIVLTQSPGTLSLSPGERATLSCRASQTVGSKLAWYQQKPGQAPRLLIYGASTRATDIPDRFSGSGSGTEFTLTISSLQSEDFAVYYCQQYINWPPLSFGGGTKVEIK	1.98
40633p1.2.E11 (scFv, V domains shown, Tested as scFv-Fc (Expi293 supernatant)) VH: EVQLLESGGGLVQPGGSLRLSCAASGFSFSNYDMSWVRQAPGKGLEWVAGIRSGSRTYYADSVKGRFTISRDNSKNTLYLQMNSLRAEDTATYYCGRYFNMDVWGQGTTVTVSS VL: QSVLTQPPSASGTPGQRVTISCSGSTFNIGTNLVHWYQQLPGTAPKLLIYLTDRRPPGVPDRFSGSKSGTSASLAISGLQSEDEANYYCATWDDSLNSFLFGGGTKLTVL	2.09
40633p1.1.A7 (scFv, V domains shown, Tested as scFv-Fc (Expi293 supernatant)) VH: EVQLLESGGGLVQPGGSLRLSCAASGFTVSYYGMSWVRQAPGKGLEWVSAIKQDGSEKYYADSVKGRFTISRDNSKNTLYLQMNSLRAEDTAVYYCARHWNDYSNAMNVWGQGTTVTVSS VL: QSVLTQPPSASGTPGQRVTISCSGSTSNIGRESVYWYQQLPGTAPKLLIYTIDQRPSGVPDRFSGSKSGTSASLAISGLQSEDEAVYYCASWDASLNGWVFGGGTKLTVL	1.95
40633p1.1.B12 (scFv, V domains shown, Tested as scFv-Fc (Expi293 supernatant)) VH: EVQLLESGGGLLQPGGSLRLSCAASGFSFSSYGMHWVRQAPGKGLEWVAAINSDGSRIYYADSVKGRFTISRDNSKNTLYLQMNSLRAEDTAVYYCTKYYYHYAMDVWGQGTTVTVSS VL: QSVLTQPPSASGTPGQRVTISCSGSRSDIGATTVNWYQQLPGTAPKLLTYQSHLRPSGVPDRFSGSKSGTSASLAISGLQSEDEADYYCASWDASLNTWVFGGGTKLTVL	1.83
